Readings of GI50 for the listed molecules
# System: renal SN12C
# Protocol description: COMPARE screening (NCI human cancer cell line screen), cytotoxicity GI50
# Type: cell-based

Worked cases, answers included:
O=C1c2ccccc2-c2c1c1ccccc1c(=O)n2CCNCCn1c2c(c3ccccc3c1=O)C(=O)c1ccccc1-2 [Compound 12a] ... > 25.1 µM
CC(C)(C)OC(=O)NCCCCCCCCCCCn1c2c(c3ccccc3c1=O)C(=O)c1ccccc1-2 [Compound 5aj] ... > 100 µM
COc1cc2c3c(n(CCCn4ccnc4)c(=O)c2cc1OC)-c1ccccc1C3=O [Compound 5e] ... < 0.01 µM
CC(C)(C)OC(=O)NCCCCCCCCCCn1c2c(c3ccccc3c1=O)C(=O)c1ccccc1-2 [Compound 5ai] ... > 100 µM

Task: Form entry - test system: renal SN12C; read-out: GI50; molecule: COc1cc2c3c(n(CCCNc4nccs4)c(=O)c2cc1OC)-c1cc2c(cc1C3=O)OCO2.Cl.Cl [Compound 5o, Dihydrochloride]
Result: < 0.01 µM
